# Tested on: IL-1β
# Method: Whole bovine blood assay, LPS-induced IL-1β (inhibition / overstimulation)
# Format: cell-based
# Condition Context: drug concentration giving overstimulation (OS) of LPS-induced IL-1β, top concentration 250 μM
Where minimal effective concentration equals or exceeds 20 µM, the correct label is TRUE; where it does not, the label is FALSE.

Exercise: Is minimal effective concentration at least 20 µM? Consider CCCNC[C@]1(O)[C@H](C)O[C@@H](O[C@H]2[C@H](C)[C@@H](O[C@@H]3O[C@H](C)C[C@H](N(Cc4ccccc4)S(=O)(=O)c4ccc(OC)cc4)[C@H]3O)[C@](C)(O)C[C@@H](C)CN[C@H](C)[C@@H](O)[C@](C)(O)[C@@H](CC)OC(=O)[C@@H]2C)C[C@@]1(C)OC [Example B-144]
Key: FALSE

Exercise: Is minimal effective concentration at least 20 µM? Consider CCCNC[C@]1(O)[C@H](C)O[C@@H](O[C@H]2[C@H](C)[C@@H](O[C@@H]3O[C@H](C)C[C@H](N(C)S(=O)(=O)NC4CCCCC4)[C@H]3O)[C@](C)(O)C[C@@H](C)CN[C@H](C)[C@@H](O)[C@](C)(O)[C@@H](CC)OC(=O)[C@@H]2C)C[C@@]1(C)OC [Example B-56]
Key: FALSE

Exercise: Is minimal effective concentration at least 20 µM? Consider CCCNC[C@]1(O)[C@H](C)O[C@@H](O[C@H]2[C@H](C)[C@@H](O[C@@H]3O[C@H](C)C[C@H](N(C)S(=O)(=O)N(C)c4ccccc4)[C@H]3O)[C@](C)(O)C[C@@H](C)CN[C@H](C)[C@@H](O)[C@](C)(O)[C@@H](CC)OC(=O)[C@@H]2C)C[C@@]1(C)OC [Example B-57]
Key: FALSE

Exercise: Is minimal effective concentration at least 20 µM? Consider CC[C@H]1OC(=O)[C@H](C)[C@@H](O[C@H]2C[C@@](C)(OC)[C@](O)(CN3CCCCC3)[C@H](C)O2)[C@H](C)[C@@H](O[C@@H]2O[C@H](C)C[C@H](N(C)S(=O)(=O)c3ccccc3)[C@H]2Oc2ccnc(F)c2)[C@](C)(O)C[C@@H](C)CN[C@H](C)[C@@H](O)[C@]1(C)O [Example C-55]
Key: FALSE

Exercise: Is minimal effective concentration at least 20 µM? Consider CC[C@H]1OC(=O)[C@H](C)[C@@H](O[C@H]2C[C@@](C)(OC)[C@](O)(CNCCN3CCCC3)[C@H](C)O2)[C@H](C)[C@@H](O[C@@H]2O[C@H](C)C[C@H](N(C)S(=O)(=O)Nc3ccc(C(F)(F)F)cc3)[C@H]2O)[C@](C)(O)C[C@@H](C)CN[C@H](C)[C@@H](O)[C@]1(C)O [Example B-68]
Key: FALSE

Exercise: Is minimal effective concentration at least 20 µM? Consider CC[C@H]1OC(=O)[C@H](C)[C@@H](O)[C@H](C)[C@@H](O[C@@H]2O[C@H](C)C[C@H](N(C)S(=O)(=O)c3scnc3C)[C@H]2Oc2ccc(F)cc2)[C@](C)(O)C[C@@H](C)CN[C@H](C)[C@@H](O)[C@]1(C)O [Example A-26]
Key: FALSE

Exercise: Is minimal effective concentration at least 20 µM? Consider CCCNC[C@]1(O)[C@H](C)O[C@@H](O[C@H]2[C@H](C)[C@@H](O[C@@H]3O[C@H](C)C[C@H](N(C)S(=O)(=O)c4nccn4C)[C@H]3Oc3cccc([S+](C)[O-])c3)[C@](C)(O)C[C@@H](C)CN[C@H](C)[C@@H](O)[C@](C)(O)[C@@H](CC)OC(=O)[C@@H]2C)C[C@@]1(C)OC (stereo partly shown) [Example B-139]
Key: TRUE

Exercise: Is minimal effective concentration at least 20 µM? Consider CC[C@H]1OC(=O)[C@H](C)[C@@H](O[C@H]2C[C@@](C)(OC)[C@](O)(CNCCCN3CCCCC3)[C@H](C)O2)[C@H](C)[C@@H](O[C@@H]2O[C@H](C)C[C@H](N(C)S(=O)(=O)Nc3ccc(C(F)(F)F)cc3)[C@H]2O)[C@](C)(O)C[C@@H](C)CN[C@H](C)[C@@H](O)[C@]1(C)O [Example B-75]
Key: TRUE

Exercise: Is minimal effective concentration at least 20 µM? Consider CCCNC[C@]1(O)[C@H](C)O[C@@H](O[C@H]2[C@H](C)[C@@H](O[C@@H]3O[C@H](C)C[C@H](N(C)S(=O)(=O)c4cn(C)c(C)n4)[C@H]3O)[C@](C)(O)C[C@@H](C)CN[C@H](C)[C@@H](O)[C@](C)(O)[C@@H](CC)OC(=O)[C@@H]2C)C[C@@]1(C)OC [Example B-5]
Key: TRUE

Exercise: Is minimal effective concentration at least 20 µM? Consider CC[C@H]1OC(=O)[C@H](C)[C@@H](O)[C@H](C)[C@@H](O[C@@H]2O[C@H](C)C[C@H](N(C)S(=O)(=O)C3CC3)[C@H]2Oc2ccccc2)[C@](C)(O)C[C@@H](C)CN[C@H](C)[C@@H](O)[C@]1(C)O [Example A-32]
Key: TRUE

Exercise: Is minimal effective concentration at least 20 µM? Consider CCCNC[C@]1(O)[C@H](C)O[C@@H](O[C@H]2[C@H](C)[C@@H](O[C@@H]3O[C@H](C)C[C@H](N(C)S(=O)(=O)c4nccn4C)[C@H]3Oc3ccc(Cl)cc3)[C@](C)(O)C[C@@H](C)CN[C@H](C)[C@@H](O)[C@](C)(O)[C@@H](CC)OC(=O)[C@@H]2C)C[C@@]1(C)OC [Example B-136]
Key: FALSE

Exercise: Is minimal effective concentration at least 20 µM? Consider CCCNC[C@]1(O)[C@H](C)O[C@@H](O[C@H]2[C@H](C)[C@@H](O[C@@H]3O[C@H](C)C[C@H](N(C)S(=O)(=O)N(C)c4ccc(C#N)cc4)[C@H]3O)[C@](C)(O)C[C@@H](C)CN[C@H](C)[C@@H](O)[C@](C)(O)[C@@H](CC)OC(=O)[C@@H]2C)C[C@@]1(C)OC [Example B-62]
Key: FALSE

Exercise: Is minimal effective concentration at least 20 µM? Consider CC[C@H]1OC(=O)[C@H](C)[C@@H](O[C@H]2C[C@@](C)(OC)[C@](O)(CNCCCN3CCCC3=O)[C@H](C)O2)[C@H](C)[C@@H](O[C@@H]2O[C@H](C)C[C@H](N(C)S(=O)(=O)Nc3ccc(C(F)(F)F)cc3)[C@H]2O)[C@](C)(O)C[C@@H](C)CN[C@H](C)[C@@H](O)[C@]1(C)O [Example B-87]
Key: FALSE

// data source = patent US20250236616A1
